All values here come from ChEMBL document CHEMBL1123396.

Overview of recorded pKa for various compounds
test: pKa value of the compound; assay type: physicochemical
Measured Metric: pKa

compound=Oc1onc2c1CNCCC2 measured_metric=pKa number=2.6
compound=Oc1onc2c1CCCNC2 measured_metric=pKa number=2.5
compound="NCCC(N)C(=O)O (stereo not given)" measured_metric=pKa number=4
compound=Oc1onc2c1CNCC2 measured_metric=pKa number=3
compound=Oc1onc2c1CCNCC2 measured_metric=pKa number=3.3

----------
target: GABA transporter (Rattus norvegicus, UniProt P31647+P23978+P31646+P48056); assay: In vitro inhibition of rat neuronal (synaptosomal) GABA uptake.; type: protein assay
Measured Metric: IC50

structure_string=Oc1onc2c1CNCC2 system_tested="GABA transporter (Rattus norvegicus, UniProt P31647+P23978+P31646+P48056)" result="130 µM"
structure_string=Oc1noc2c1CCNCC2 system_tested="GABA transporter (Rattus norvegicus, UniProt P31647+P23978+P31646+P48056)" result="> 300 µM"
structure_string=Oc1onc2c1CCNCC2 system_tested="GABA transporter (Rattus norvegicus, UniProt P31647+P23978+P31646+P48056)" result="> 300 µM"
structure_string=Oc1onc2c1CNCCC2 system_tested="GABA transporter (Rattus norvegicus, UniProt P31647+P23978+P31646+P48056)" result="> 300 µM"
structure_string=Oc1onc2c1CCCNC2 system_tested="GABA transporter (Rattus norvegicus, UniProt P31647+P23978+P31646+P48056)" result="> 300 µM"

----------
biological target: GABA-A receptor; anion channel; assay: In vitro inhibition of [3H]GABA binding to Gamma-aminobutyric acid receptor from rat brain synaptic membranes.
pIC50: −log10 of the molar value.
Measured Metric: pIC50

compound=Oc1noc2c1CNCC2 system_tested="GABA-A receptor; anion channel" bound_operator== number=4.14
compound=Oc1onc2c1CCCNC2 system_tested="GABA-A receptor; anion channel" bound_operator=< number=4.00
compound=Oc1onc2c1CCNCC2 system_tested="GABA-A receptor; anion channel" bound_operator== number=4.82
compound="NCCC(N)C(=O)O (stereo unspecified)" system_tested="GABA-A receptor; anion channel" bound_operator== number=7.48
compound=Oc1onc2c1CNCCC2 system_tested="GABA-A receptor; anion channel" bound_operator=< number=4.00
compound=Oc1onc2c1CNCC2 system_tested="GABA-A receptor; anion channel" bound_operator== number=4.00
